Some molecules, each annotated with its measured solubility.
run_description: Solubility limited absorbable dose (SLAD) calculation with predicted human jejunal Peff
experimental_conditions: FaSSIF
Source text: Predicted Peff values were obtained from a calibration plot of literature Peff values vs measured Caco-2 Papp using either buffer or plasma as the transport medium (see Results section).
Only the number, expressed in µg/mL, is required.

Data request: I am curious: what solubility value has been reported for "COc1ncnc(NS(=O)(=O)c2ccc(N)cc2)c1OC" ?
Data returned: 858

Data request: Let us now turn to OC(c1cc(C(F)(F)F)nc2c(C(F)(F)F)cccc12)C1CCCCN1 (stereo not shown)
Data returned: 584

Data request: Let us now turn to "c1cc([C@H]2CC[C@]3(CC2)OO[C@]2(O3)C3CC4CC(C3)CC2C4)ccc1OCCN1CCOCC1"
Data returned: 40.6

Data request: Let us now turn to "CS(=O)(=O)c1ccc(-c2cnc(N)c(-c3ccc(C(F)(F)F)nc3)c2)cc1"
Data returned: 6.7

====

run_description: Ionization constants by potentiometric titration
Assay type: physicochemical
experimental_conditions: aqueous solution (DMSO stock diluted 1:10 with water), basic pKa (B), mean ± SD, n = 3 titrations, read-out: Measured pKa
metric: pKa
// return just the number, without any unit appended

// known answers, use as guide
[[record]]
structure_notation = "C[C@H]1Cc2c([nH]c3cc(Cl)c(F)cc23)[C@@]2(N1)C(=O)Nc1ccc(Cl)cc12"
value_measured = 5.1

[[record]]
structure_notation = "N#Cc1cc(NC(=O)[C@H]2c3ccccc3C(=O)N(CC(F)(F)F)[C@@H]2c2cccnc2)ccc1F"
value_measured = 4.1


Data request: I am curious: what pKa value has been reported for "CC1(C)N=C(N)N=C(N)N1c1ccc(Cl)cc1" ?
Data returned: 11.4

====

test_system: UniProt:P08684
Sequence (P08684 whole entry): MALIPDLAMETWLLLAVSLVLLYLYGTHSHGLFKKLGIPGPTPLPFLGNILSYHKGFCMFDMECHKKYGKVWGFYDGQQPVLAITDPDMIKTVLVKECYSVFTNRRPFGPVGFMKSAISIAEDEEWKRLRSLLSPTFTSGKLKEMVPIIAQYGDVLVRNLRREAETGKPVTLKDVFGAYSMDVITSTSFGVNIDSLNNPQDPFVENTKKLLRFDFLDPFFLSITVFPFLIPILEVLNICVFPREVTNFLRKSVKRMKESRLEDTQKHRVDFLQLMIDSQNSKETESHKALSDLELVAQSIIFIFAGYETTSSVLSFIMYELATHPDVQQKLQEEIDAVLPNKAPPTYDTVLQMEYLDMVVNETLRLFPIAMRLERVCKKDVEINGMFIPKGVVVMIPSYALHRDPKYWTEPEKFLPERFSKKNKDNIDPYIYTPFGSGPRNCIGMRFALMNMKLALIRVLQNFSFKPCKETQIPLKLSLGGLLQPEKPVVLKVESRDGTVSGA
run_description: in vitro
experimental_conditions: microsomes
metric: pKi
A value of pKi is the negative decimal logarithm of a concentration given in moles per litre.

[[record]]
compound = "COc1cc(N[C@H](C)CCCN)c2nccc(C)c2c1Oc1ccc(Cl)c(Cl)c1 [NPC1161B]"
value_measured = 5.09


Please find the next compound below.
Data request: I am curious: what pKi value has been reported for CN(C)C[c-]1cccc1CNc1ccnc2cc(Cl)ccc12.[Fe+2].c1cc[cH-]c1 (centres unmarked) ?
Data returned: 5.28

====

run_description: Solubility limited absorbable dose (SLAD) calculation with predicted human jejunal Peff
experimental_conditions: Ssi × V (500 mL) × Mp
Some molecules, each annotated with its measured SLAD.
Only the number, expressed in mg, is required.

[[record]]
molecule = "CC1(C)c2nc(-c3ccc(F)cc3)c(Nc3ccc(F)cc3)n2CCN1C(=O)CN"
value_measured = 2780


Data request: I am curious: what SLAD value has been reported for "CC[C@H]1OC(=O)[C@H](C)[C@@H](O[C@H]2C[C@@](C)(OC)[C@@H](O)[C@H](C)O2)[C@H](C)[C@@H](O[C@@H]2O[C@H](C)C[C@H](N(C)C)[C@H]2O)[C@](C)(O)C[C@@H](C)CN(C)[C@H](C)[C@@H](O)[C@]1(C)O" ?
Data returned: 720

Data request: Let us now turn to "c1cc([C@H]2CC[C@]3(CC2)OO[C@]2(O3)C3CC4CC(C3)CC2C4)ccc1OCCN1CCOCC1"
Data returned: 270

Data request: Let us now turn to CN(C)C[c-]1cccc1CNc1ccnc2cc(Cl)ccc12.[Fe+2].c1cc[cH-]c1 (centres unmarked)
Data returned: 426
